The origin of these recorded values is patent US6551605B2.

Assign solubility to each entry below.
TEST METHOD NOTES: Solubility of retinoids in diethylhexyl 2,6-naphthalate (HallBrite TQ)
Assay type: physicochemical
TEST CONTEXT: organic solvent or mixture, read-out: solubility in diethylhexyl diester of 2,6-naphthalene-dicarboxylic acid

Field solubility (entry CC1=C(/C=C/C(C)=C/C=C/C(C)=C/C(=O)O)C(C)(C)CCC1 [tretinoin, all-trans-retinoic acid] ) reads ~5600 µg/mL

Reported solubility ( CC1=C(/C=C/C(C)=C/C=C/C(C)=C\C(=O)O)C(C)(C)CCC1 [isotretinoin, 13-cis-retinoic acid] ) = ~6700 µg/mL
